# measurement.description: Cytotoxicity in Huh7 cells (ATPLite)
# Type: cell-based, human
# test.settings: human, Huh7 cells (human hepatoma cell line), 96 h incubation, read-out: CC50, nM (gT1b)
Counter-ions that a name gives are not always drawn.
This section presents compounds with their documented CC50 at 96 h values.

INSERT INTO results (compound, test_result) VALUES
  ('COC(=O)N[C@H](C(=O)N1CCC[C@H]1c1ncc(C#CC#Cc2cccc3c(-c4cnc([C@@H]5CCCN5C(=O)[C@@H](NC(=O)OC)C(C)C)[nH]4)cccc23)[nH]1)C(C)C [1.7•2HCl, dihydrochloride]', '> 10000 nM'),
  ('COC(=O)N[C@H](C(=O)N1CCC[C@H]1c1ncc(C#CC#Cc2ccc3cc(-c4cnc([C@@H]5CCCN5C(=O)[C@@H](NC(=O)OC)C(C)C)[nH]4)ccc3c2)[nH]1)C(C)C [1.6•2HCl, dihydrochloride]', '> 10000 nM'),
  ('COC(=O)N[C@H](C(=O)N1CCC[C@H]1c1ncc(C#CC#Cc2ccc(-c3cnc([C@@H]4CCCN4C(=O)[C@@H](NC(=O)OC)C(C)C)[nH]3)c3ccccc23)[nH]1)C(C)C [1.8•2HCl, dihydrochloride]', '> 10000 nM'),
  ('COC(=O)N[C@H](C(=O)N1CCC[C@H]1c1nc(C#CC#Cc2ccc(-c3c[nH]c([C@@H]4CCCN4C(=O)[C@@H](NC(=O)OC)C(C)C)n3)s2)c[nH]1)C(C)C [1.9•2HCl, dihydrochloride]', '> 10000 nM');

Now consider the entry below.
Query COC(=O)N[C@H](C(=O)N1CCC[C@H]1c1ncc(C#CC#Cc2csc3c(-c4cnc([C@@H]5CCCN5C(=O)[C@@H](NC(=O)OC)C(C)C)[nH]4)csc23)[nH]1)C(C)C [1.10•2HCl, dihydrochloride] yields CC50 at 96 h of > 10000 nM

Each recorded value in this set is attributed to patent US9428491B2.
